Readings of ROS for the listed molecules
Tested on: reactive oxygen species
Type: cell-based, mouse
Details: composite Z-score vs mock-treated (DMSO) wells; concentration of each compound in μM

Consider the reported ROS for these molecules:
>>> value("COc1ccc(-c2cc(=O)c3c(OC)cc(OC)c(-c4cc(-c5cc(=O)c6c(OC)cc(OC)cc6o5)ccc4OC)c3o2)cc1 [dioonflavone]")
0.650
>>> value("CC(C)c1c(O)ccc2c1CCC1C(C)(C(=O)O)CCCC21C (stereo not drawn) [totarol-19-carboxylic acid]")
"−0.209"
>>> value("COc1ccc([C@H]2COc3c(ccc(O)c3OC)C2)c(OC)c1O [(−)-duartin]")
0.900
>>> value("CC[C@H](C)[C@H](N)C(=O)N1CCC[C@H]1C(=O)N[C@H](C(=O)O)[C@@H](C)CC [diprotin A]")
0.300
>>> value("CN1Cc2c(ccc3c2OCO3)[C@@H]2[C@H]1c1cc3c(cc1C[C@@H]2O)OCO3 [(+)-chelidonine]")
"−1.486"

Read the next record carefully.
input: Returns the measured ROS for the input molecule. Input: O=C(O)CCC/C=C\CC1COC(C(F)(F)F)OC1c1ccccc1O (stereo not drawn)
output: 0.713
